Study Target: T1, human CD11a (human) (UniProt P20701)
T1 sequence (looked up): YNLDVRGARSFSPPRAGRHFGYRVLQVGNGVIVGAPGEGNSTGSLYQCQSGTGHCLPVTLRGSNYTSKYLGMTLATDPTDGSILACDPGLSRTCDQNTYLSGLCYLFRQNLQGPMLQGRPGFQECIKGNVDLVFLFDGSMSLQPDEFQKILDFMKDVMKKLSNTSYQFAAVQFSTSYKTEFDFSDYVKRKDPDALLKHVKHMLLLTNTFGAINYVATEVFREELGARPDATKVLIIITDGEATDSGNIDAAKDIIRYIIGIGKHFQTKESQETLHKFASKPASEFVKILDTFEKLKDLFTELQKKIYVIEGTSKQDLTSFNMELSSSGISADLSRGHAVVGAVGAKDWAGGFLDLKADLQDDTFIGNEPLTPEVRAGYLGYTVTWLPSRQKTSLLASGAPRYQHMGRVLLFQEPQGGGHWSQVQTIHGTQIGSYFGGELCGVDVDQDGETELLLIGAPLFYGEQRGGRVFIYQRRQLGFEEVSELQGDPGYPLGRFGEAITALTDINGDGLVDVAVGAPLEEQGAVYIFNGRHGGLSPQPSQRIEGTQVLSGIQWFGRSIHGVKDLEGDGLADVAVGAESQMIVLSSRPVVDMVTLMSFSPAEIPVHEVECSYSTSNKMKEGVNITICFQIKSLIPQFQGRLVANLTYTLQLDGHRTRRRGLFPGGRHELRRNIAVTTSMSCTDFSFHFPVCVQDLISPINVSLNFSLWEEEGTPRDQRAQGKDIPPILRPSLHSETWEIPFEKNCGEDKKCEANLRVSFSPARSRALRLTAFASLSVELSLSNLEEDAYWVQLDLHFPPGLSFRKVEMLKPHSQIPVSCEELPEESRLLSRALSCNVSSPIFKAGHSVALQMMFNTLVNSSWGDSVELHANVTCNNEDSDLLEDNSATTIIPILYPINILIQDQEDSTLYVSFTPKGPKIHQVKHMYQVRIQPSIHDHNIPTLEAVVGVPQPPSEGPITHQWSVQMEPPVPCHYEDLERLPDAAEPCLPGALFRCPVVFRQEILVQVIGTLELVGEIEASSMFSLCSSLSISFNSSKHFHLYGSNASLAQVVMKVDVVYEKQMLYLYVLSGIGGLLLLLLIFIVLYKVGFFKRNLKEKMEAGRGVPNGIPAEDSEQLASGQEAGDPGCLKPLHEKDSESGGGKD
Assay Name: FACScan, Jurkat cells
Measured Parameter: Var.EC50/HuIgG1 EC50

INSERT INTO results (binder, measured_parameter, value_observed) VALUES
  ('SerL50Ala variant IgG1 (antibody, V domains shown) VH: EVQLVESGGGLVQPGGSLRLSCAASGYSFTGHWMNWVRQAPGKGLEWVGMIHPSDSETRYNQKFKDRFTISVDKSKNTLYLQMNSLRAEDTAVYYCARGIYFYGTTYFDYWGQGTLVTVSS VL: DIQMTQSPSSLSASVGDRVTITCRASKTISKYLAWYQQKPGKAPKLLIYAGSTLQSGVPSRFSGSGSGTDFTLTISSLQPEDFATYYCQQHNEYPLTFGQGTKVEIKR', 'Var.EC50/HuIgG1 EC50', 1.2),
  ('L2 variant IgG1 (antibody, V domains shown) VH: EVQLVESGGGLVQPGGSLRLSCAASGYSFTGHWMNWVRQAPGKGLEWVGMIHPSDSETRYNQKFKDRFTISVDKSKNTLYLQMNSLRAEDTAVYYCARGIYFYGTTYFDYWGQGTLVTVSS VL: DIQMTQSPSSLSASVGDRVTITCRASKTISKYLAWYQQKPGKAPKLLIYAGAALQSGVPSRFSGSGSGTDFTLTISSLQPEDFATYYCQQHNEYPLTFGQGTKVEIKR', 'Var.EC50/HuIgG1 EC50', 1.1),
  ('ThrH30Ala variant IgG1 (antibody, V domains shown) VH: EVQLVESGGGLVQPGGSLRLSCAASGYSFAGHWMNWVRQAPGKGLEWVGMIHPSDSETRYNQKFKDRFTISVDKSKNTLYLQMNSLRAEDTAVYYCARGIYFYGTTYFDYWGQGTLVTVSS VL: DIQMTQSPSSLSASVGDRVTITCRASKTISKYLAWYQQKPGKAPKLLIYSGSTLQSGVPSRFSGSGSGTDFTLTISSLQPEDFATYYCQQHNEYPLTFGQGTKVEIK', 'Var.EC50/HuIgG1 EC50', 1.7),
  ('ThrH100bAla variant IgG1 (antibody, V domains shown) VH: EVQLVESGGGLVQPGGSLRLSCAASGYSFTGHWMNWVRQAPGKGLEWVGMIHPSDSETRYNQKFKDRFTISVDKSKNTLYLQMNSLRAEDTAVYYCARGIYFYGTAYFDYWGQGTLVTVSS VL: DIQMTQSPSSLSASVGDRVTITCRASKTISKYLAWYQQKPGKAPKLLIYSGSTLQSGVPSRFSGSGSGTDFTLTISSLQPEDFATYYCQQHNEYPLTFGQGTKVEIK', 'Var.EC50/HuIgG1 EC50', 1.4),
  ('SerH55Ala variant IgG1 (antibody, V domains shown) VH: EVQLVESGGGLVQPGGSLRLSCAASGYSFTGHWMNWVRQAPGKGLEWVGMIHPSDAETRYNQKFKDRFTISVDKSKNTLYLQMNSLRAEDTAVYYCARGIYFYGTTYFDYWGQGTLVTVSS VL: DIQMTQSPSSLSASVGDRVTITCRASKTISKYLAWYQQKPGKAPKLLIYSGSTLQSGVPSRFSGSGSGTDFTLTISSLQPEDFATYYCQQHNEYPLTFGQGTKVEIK', 'Var.EC50/HuIgG1 EC50', 1.3);
